// values below are reported relative β-galactosidase activity, inducer Ms
Tested on: lacZ under control of the tetA promoter (PtetA) in E. coli KM3
Assay type: cell-based
Conditions: Table 4; metsulfuron 20 ppm; 48 hrs at 30° C.
Respond with the number and no other words.

Some entries whose results are on file:
molecule="L1-7: SU-responsive TetR(B) variant, library L1 hit, SEQ ID NO: 4 (protein, Sulfonylurea responsive repressor L1-07) MGSRLDKSKVINSALELLNEVGIEGLTTRKLAQKLGVEQPTLYWHVKNKRALLDALAIEMLDRHNTHFCPLEGESWQDFLRNNAKSWRCALLSHRDGAKVVLGTAITEKQYETHENPLAFLCQQGFSLENALYAIAAVRRFTLGCVLVDQERQVAKEERETPTTDSMPPLLRQASELQDHQGAEPAFLFGLELIICGLEKQLKCERGS" observed_measurement=0.2
molecule="L1-29: SU-responsive TetR(B) variant, library L1 hit, SEQ ID NO: 10 (protein, Sulfonylurea responsive repressor L1-29) MGSRLDKSKVINSALELLNEVGIEGLTTRKLAQKLGVEQPTLYWHVKNKRALLDALAIEMMDRHQTHFCPLEGESWQDFLRNTAKSMRCALLSHRDGAKVWLGTRWTEKQYETPENMLAFLCQQGFSLENALYAWSAVCNFTLGCVLSDQERQVAKEERETPTTDSMPPLLRQAWELSDHQGAEPAFLFGLELIICGLEKQLKCESGS" observed_measurement=13.5
molecule="L1-9: SU-responsive TetR(B) variant, library L1 hit (protein, Sulfonylurea responsive repressor L1-09) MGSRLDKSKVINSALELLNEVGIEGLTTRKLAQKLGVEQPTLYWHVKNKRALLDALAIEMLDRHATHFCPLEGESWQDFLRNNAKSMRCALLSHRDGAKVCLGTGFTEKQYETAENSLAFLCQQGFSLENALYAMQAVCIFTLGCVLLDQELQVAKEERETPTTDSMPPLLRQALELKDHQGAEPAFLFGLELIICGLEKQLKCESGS" observed_measurement=1.2
molecule="L1-2: SU-responsive TetR(B) ligand binding domain variant, library L1 hit, SEQ ID NO: 3 (protein, Sulfonylurea responsive repressor L1-02) MGSRLDKSKVINSALELLNEVGIEGLTTRKLAQKLGVEQPTLYWHVKNKRALLDALAIEMLDRHATHFCPLEGESWQDFLRNNAKSFRCALLSHRDGAKVCLGTAVTEKQYETMENILAFLCQQGFSLENALYARRAVIAFTLGCVLWDQEYQVAKEERETPTTDSMPPLLRQARELIDHQGAEPAFLFGLELIICGLEKQLKCESGS" observed_measurement=1.9
molecule="L1-44: SU-responsive TetR(B) variant, library L1 hit, SEQ ID NO: 13 (protein, Sulfonylurea responsive repressor L1-44) MGSRLDKSKVINSALELLNEVGIEGLTTRKLAQKLGVEQPTLYWHVKNKRALLDALAIEMLDRHATHFCPLEGESWQDFLRNNAKSYRCALLSHRDGAKVYLGTAVTEKQYETAENQLAFLCQQGFSLENALYAVKAVAGFTLGCVLWDQESQVAKEERETPTTASMPPLLRQAVELADHQGAEPAFLFGLELIICGLEKQLKCESGS" observed_measurement=2.9

relative β-galactosidase activity, inducer Ms for L1-28: SU-responsive TetR(B) variant, library L1 hit (protein, Sulfonylurea responsive repressor L1-28) MGSRLDKSKVINSALELLNEVGIEGLTTRKLAQKLGVEQPTLYWHVKNKRALLDALAIEMLDRHATHFCPLEGESWQDFLRNNAKSMRCALLSHRDGAKVWLGTAWTEKQYETPENVLAFLCQQGFSLENALYASRAVVTFTLGCVLTDQEKQVAKEERETPTTDSMPPLLRQAWELLDHQGAEPAFLFGLELIICGLEKQLKCESGS ? 18.8

Can you handle L1-38: SU-responsive TetR(B) variant, library L1 hit (protein, Sulfonylurea responsive repressor L1-38) MGSRLDKSKVINSALELLNEVGIEGLTTRKLAQKLGVEQPTLYWHVKNKRALLDALAIEMADRHHTHFCPLEGESWQDFLRNNAKSMRCALLSHRDGAKVWLGTAWTEKQYETTENMLAFLCQQGFSLENALYAWRAVTMFTLGCVLRDQEWQVAKEERETPTTDSMPPLLRQALELGDHQGAEPAFLFGLELIICGLEKQLKCESGS next? 14.7
